Entry source: BindingDB's records for patent US20240025883

Form field: IC50 (one value per entry).
# assay-system: Uracil nucleotide/cysteinyl leukotriene receptor (Homo sapiens)
# run-description: GPR17 cAMP Assay Protocol
Respond numerically; units are nM and should not be typed.

For orientation, consider the following solved cases.
| chemical-string | IC50 [nM] |
| --- | --- |
| COc1nc(NS(=O)(=O)c2c[nH]c3nc(C(F)F)ccc23)nc(OC)c1OC(F)(F)CF | 50 |
| COc1nc(NS(=O)(=O)c2c[nH]c3nc(C(F)F)ccc23)nc(OC)c1OCCF | 68 |
| COc1nc(NS(=O)(=O)c2c[nH]c3cc(Cl)ccc23)nc(OC)c1OCC(F)F | 17 |

Bench note: what IC50 did `COc1nc(NS(=O)(=O)c2c[nH]c3cc(Cl)ccc23)nc(OC)c1OC(F)(F)CF` show?
17

---

# assay-system: Uracil nucleotide/cysteinyl leukotriene receptor (Homo sapiens)
# run-description: GPR17 cAMP Assay Protocol
recorded-endpoint: IC50 (nM)
Return type: number; implicit unit nM.

Would you mind telling me what IC50 value was observed for COc1nc(NS(=O)(=O)c2c[nH]c3cc(C(F)F)ccc23)nc(OC)c1OCC(F)F [US20240025883, Example 102] ?
14

So what's the measured IC50 for this one? COc1nc(NS(=O)(=O)c2c[nH]c3c(C#N)c(Cl)ccc23)nc(OC)c1CC(F)F [US20240025883, Example 227]
22

# IC50 lookup, item COc1nc(NS(=O)(=O)c2c[nH]c3cc(F)ccc23)nc(OC)c1OC(F)(F)CF [US20240025883, Example 87]
66

---

Attribute: IC50
# assay-system: Uracil nucleotide/cysteinyl leukotriene receptor (Homo sapiens, UniProt Q13304)
# Sequence (Q13304 whole entry): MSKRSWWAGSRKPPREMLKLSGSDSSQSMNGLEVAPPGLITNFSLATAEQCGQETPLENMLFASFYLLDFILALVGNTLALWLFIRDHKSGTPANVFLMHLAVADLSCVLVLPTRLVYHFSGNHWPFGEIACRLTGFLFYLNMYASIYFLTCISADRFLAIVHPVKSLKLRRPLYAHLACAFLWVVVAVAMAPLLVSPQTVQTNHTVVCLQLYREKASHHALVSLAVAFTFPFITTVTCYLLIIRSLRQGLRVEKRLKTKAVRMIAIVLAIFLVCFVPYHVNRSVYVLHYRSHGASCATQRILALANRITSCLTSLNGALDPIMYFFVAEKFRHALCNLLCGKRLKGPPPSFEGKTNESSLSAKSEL
# run-description: GPR17 cAMP Assay Protocol

Past entries and their recorded results:
| chemical-string | IC50 |
| --- | --- |
| COc1nc(NS(=O)(=O)c2c[nH]c3cc(SC)ccc23)ncc1CC(F)F | 96 nM |
| COc1nc(NS(=O)(=O)c2c[nH]c3c4c(ccc23)COC4)ncc1CC(F)F | 161 nM |
| COc1nc(NS(=O)(=O)c2c[nH]c3nc(C(F)F)ccc23)nc(OC)c1OCC(F)F | 29 nM |
| COc1nc(NS(=O)(=O)c2c[nH]c3c(C#N)c(Cl)ccc23)nc(OC)c1OCCF | 32 nM |

Let us examine a further case.
Look up IC50 for this compound: `COc1nc(NS(=O)(=O)c2c[nH]c3c(C#N)c(Cl)ccc23)nc(OC)c1OCC(F)F`
35 nM
